measurementProtocol: in vivo
conditionLabel: male, Sprague-Dawley, rat, po, 8 g/kg, AUC0–t, model group (MG, myocardial ischemia) rats, oral administration of QSKL, plasma, mean ± SD, n = 6
Documented AUC(0-t) across a set of compounds
Write it as a number; the unit ng·h/mL goes unstated.

compound	quantityUnit	AUC(0-t)
COC[C@@]12CC[C@H](OC)[C@]34C(C([C@H](OC)[C@H]13)[C@]1(OC(C)=O)[C@H]3[C@@H](OC(=O)c5ccccc5)[C@](O)(C[C@H]34)[C@@H](OC)[C@@H]1O)N(C)C2	ng·h/mL	0.567

Exercise: Request the reported AUC(0-t) associated with COCC12CN(C)C3C4C(OC)C1C3(C(OC)CC2O)C1CC2(O)C(OC)C(O)C4(O)C1C2OC(=O)c1ccccc1 (stereo not shown)
Key: 7.34

Exercise: Param item: "O=C(/C=C/c1ccc(O[C@@H]2O[C@H](CO)[C@@H](O)[C@H](O)[C@H]2O)cc1)c1ccc(O)cc1O"
Key: 1.58

Exercise: Param item: COCC12CCC(OC)C34C5CC6(O)C(OC)C(O)C(O)(C5C6OC(=O)c5ccccc5)C(C(OC)C13)C4N(C)C2 (stereo not shown)
Key: 0.926
